Tested on: Frog (Rana pipiens) Skin
Type: cell-based
Details: linear analogues; relative to alpha-MSH = 1.0
Protocol: Based upon the structural relationship of alpha-MSH (and its analogues and fragments) to its biological potency, using in vitro a frog skin bioassay system, the active site of alpha-MSH appears to be the common active core sequence suitably modified Ac-Met-Glu-His-Phe-Arg-Trp-Gly-NH₂. […] The biological potencies of alpha-MSH, the linear, and the cyclic analogues were determined by their ability to stimulate melanosome dispersion in vitro in the frog and lizard bioassays. […]
Non-standard residues stand in square brackets, D forms with d. Residues, ends and D or L forms follow the SMILES beside them. Nle = CCCC[C@H](N)C(=O)O; Dab = NCC[C@H](N)C(=O)O
Property label: Biological Potency Frog

// worked examples, Biological Potency Frog included
CCCC[C@H](NC(C)=O)C(=O)N[C@@H](CCC(=O)O)C(=O)N[C@@H](Cc1c[nH]cn1)C(=O)N[C@H](Cc1ccccc1)C(=O)N[C@@H](CCCNC(=N)N)C(=O)N[C@@H](Cc1c[nH]c2ccccc12)C(=O)N[C@@H](CCCN)C(N)=O [Analogue 8] = 0.6
CCCC[C@H](NC(C)=O)C(=O)N[C@@H](CCC(=O)O)C(=O)N[C@@H](Cc1c[nH]cn1)C(=O)N[C@H](Cc1ccccc1)C(=O)N[C@@H](CCCNC(=N)N)C(=O)N[C@@H](Cc1c[nH]c2ccccc12)C(=O)N[C@@H](CCCCN)C(N)=O [Analogue 6] = 0.2
CCCC[C@H](NC(C)=O)C(=O)N[C@@H](CCC(=O)O)C(=O)N[C@@H](Cc1c[nH]cn1)C(=O)N[C@H](Cc1ccccc1)C(=O)N[C@@H](CCCNC(=N)N)C(=O)N[C@@H](Cc1c[nH]c2ccccc12)C(=O)N[C@@H](CCN)C(N)=O [Analogue 10] (Ac-[Nle]EH[dF]RW[Dab]-NH2) = 0.9
CCCC[C@H](NC(C)=O)C(=O)N[C@@H](CC(=O)O)C(=O)N[C@@H](Cc1c[nH]cn1)C(=O)N[C@H](Cc1ccccc1)C(=O)N[C@@H](CCCNC(=N)N)C(=O)N[C@@H](Cc1c[nH]c2ccccc12)C(=O)N[C@@H](CCCCN)C(=O)NCC(=O)N1CCC[C@H]1C(=O)N[C@H](C(N)=O)C(C)C [Analogue 4] (Ac-[Nle]DH[dF]RWKGPV-NH2) = 1.0

Next item in the queue.
Q) Bench note: what Biological Potency Frog did CCCC[C@H](NC(=O)[C@H](CO)NC(=O)[C@H](Cc1ccc(O)cc1)NC(=O)[C@H](CO)NC(C)=O)C(=O)N[C@@H](CC(=O)O)C(=O)N[C@@H](Cc1c[nH]cn1)C(=O)N[C@H](Cc1ccccc1)C(=O)N[C@@H](CCCNC(=N)N)C(=O)N[C@@H](Cc1c[nH]c2ccccc12)C(=O)N[C@@H](CCCCN)C(=O)NCC(=O)N1CCC[C@H]1C(=O)N[C@H](C(N)=O)C(C)C [Analogue 2] (Ac-SYS[Nle]DH[dF]RWKGPV-NH2) show?
A) 9.0

* * *

system: Lizard (Anolis carolinensis) Skin; type: cell-based; details: linear analogues; P = prolonged action
Non-standard residues stand in square brackets, D forms with d. Residues, ends and D or L forms follow the SMILES beside them. Nle = CCCC[C@H](N)C(=O)O
Property label: Residual Activity Lizard

CCCC[C@H](NC(C)=O)C(=O)N[C@@H](CCC(=O)O)C(=O)N[C@@H](Cc1c[nH]cn1)C(=O)N[C@H](Cc1ccccc1)C(=O)N[C@@H](CCCNC(=N)N)C(=O)N[C@@H](Cc1c[nH]c2ccccc12)C(=O)N[C@@H](CCCCN)C(=O)NCC(=O)N1CCC[C@H]1C(=O)N[C@H](C(N)=O)C(C)C [Analogue 3] (Ac-[Nle]EH[dF]RWKGPV-NH2) = P(+)
CCCC[C@H](NC(C)=O)C(=O)N[C@@H](CC(=O)O)C(=O)N[C@@H](Cc1c[nH]cn1)C(=O)N[C@H](Cc1ccccc1)C(=O)N[C@@H](CCCNC(=N)N)C(=O)N[C@@H](Cc1c[nH]c2ccccc12)C(=O)NCC(N)=O = P(-)

* * *

Tested on: Lizard (Anolis carolinensis) Skin
Assay type: cell-based
Conditions: linear analogues; P = prolonged action
Experimental: Based upon the structural relationship of alpha-MSH (and its analogues and fragments) to its biological potency, using in vitro a frog skin bioassay system, the active site of alpha-MSH appears to be the common active core sequence suitably modified Ac-Met-Glu-His-Phe-Arg-Trp-Gly-NH₂. […] The biological potencies of alpha-MSH, the linear, and the cyclic analogues were determined by their ability to stimulate melanosome dispersion in vitro in the frog and lizard bioassays. […]
Property label: Residual Activity Lizard

CCCC[C@H](NC(C)=O)C(=O)N[C@@H](CC(=O)O)C(=O)N[C@@H](Cc1c[nH]cn1)C(=O)N[C@H](Cc1ccccc1)C(=O)N[C@@H](CCCNC(=N)N)C(=O)N[C@@H](Cc1c[nH]c2ccccc12)C(=O)N[C@@H](CCN)C(N)=O = P(-)
CCCC[C@H](NC(C)=O)C(=O)N[C@@H](CC(=O)O)C(=O)N[C@@H](Cc1c[nH]cn1)C(=O)N[C@H](Cc1ccccc1)C(=O)N[C@@H](CCCNC(=N)N)C(=O)N[C@@H](Cc1c[nH]c2ccccc12)C(=O)N[C@@H](CCCCN)C(N)=O = P(-)
CCCC[C@H](NC(C)=O)C(=O)N[C@@H](CC(=O)O)C(=O)N[C@@H](Cc1c[nH]cn1)C(=O)N[C@H](Cc1ccccc1)C(=O)N[C@@H](CCCNC(=N)N)C(=O)N[C@@H](Cc1c[nH]c2ccccc12)C(=O)N[C@@H](CCCN)C(N)=O = P(-)

* * *

tested on: Frog (Rana pipiens) Skin; type: cell-based; conditions: linear analogues; relative to alpha-MSH = 1.0
Non-standard residues stand in square brackets, D forms with d. Residues, ends and D or L forms follow the SMILES beside them. Nle = CCCC[C@H](N)C(=O)O
Would you mind labelling by Biological Potency Frog? At or over 0.9 is T, under is F.

CCCC[C@H](NC(C)=O)C(=O)N[C@@H](CCC(=O)O)C(=O)N[C@@H](Cc1c[nH]cn1)C(=O)N[C@@H](Cc1ccccc1)C(=O)N[C@@H](CCCNC(=N)N)C(=O)N[C@@H](Cc1c[nH]c2ccccc12)C(=O)N[C@@H](CCCCN)C(N)=O = F

Q) Textbook exercise: given the entry CCCC[C@H](NC(C)=O)C(=O)N[C@@H](CCC(=O)O)C(=O)N[C@@H](Cc1c[nH]cn1)C(=O)N[C@H](Cc1ccccc1)C(=O)N[C@@H](CCCNC(=N)N)C(=O)N[C@@H](Cc1c[nH]c2ccccc12)C(=O)N[C@@H](CCCCN)C(=O)NCC(=O)N1CCC[C@H]1C(=O)N[C@H](C(N)=O)C(C)C [Analogue 3] (Ac-[Nle]EH[dF]RWKGPV-NH2) , state whether its Biological Potency Frog is greater than or equal to 0.9.
A) F

Q) And the next one, CCCC[C@H](NC(C)=O)C(=O)N[C@@H](CC(=O)O)C(=O)N[C@@H](Cc1c[nH]cn1)C(=O)N[C@H](Cc1ccccc1)C(=O)N[C@@H](CCCNC(=N)N)C(=O)N[C@@H](Cc1c[nH]c2ccccc12)C(=O)NCC(N)=O ?
A) F

Q) And the next one, CCCC[C@H](NC(=O)[C@H](CO)NC(=O)[C@H](Cc1ccc(O)cc1)NC(=O)[C@H](CO)NC(C)=O)C(=O)N[C@@H](CCC(=O)O)C(=O)N[C@@H](Cc1c[nH]cn1)C(=O)N[C@H](Cc1ccccc1)C(=O)N[C@@H](CCCNC(=N)N)C(=O)N[C@@H](Cc1c[nH]c2ccccc12)C(=O)N[C@@H](CCCCN)C(=O)NCC(=O)N1CCC[C@H]1C(=O)N[C@H](C(N)=O)C(C)C [Analogue 1] (Ac-SYS[Nle]EH[dF]RWKGPV-NH2) ?
A) T

Q) And the next one, CCCC[C@H](NC(C)=O)C(=O)N[C@@H](CC(=O)O)C(=O)N[C@@H](Cc1c[nH]cn1)C(=O)N[C@H](Cc1ccccc1)C(=O)N[C@@H](CCCNC(=N)N)C(=O)N[C@@H](Cc1c[nH]c2ccccc12)C(=O)N[C@@H](CN)C(N)=O ?
A) F

* * *

system: Lizard (Anolis carolinensis) Skin; format: cell-based; conditions: linear analogues; P = prolonged action
Property label: Residual Activity Lizard

CCCC[C@H](NC(C)=O)C(=O)N[C@@H](CCC(=O)O)C(=O)N[C@@H](Cc1c[nH]cn1)C(=O)N[C@H](Cc1ccccc1)C(=O)N[C@@H](CCCNC(=N)N)C(=O)N[C@@H](Cc1c[nH]c2ccccc12)C(=O)N[C@@H](CCCN)C(N)=O = P(-)
CCCC[C@H](NC(C)=O)C(=O)N[C@@H](CCC(=O)O)C(=O)N[C@@H](Cc1c[nH]cn1)C(=O)N[C@@H](Cc1ccccc1)C(=O)N[C@@H](CCCNC(=N)N)C(=O)N[C@@H](Cc1c[nH]c2ccccc12)C(=O)N[C@@H](CCCCN)C(N)=O = P(-)
